- EXPERIMENTAL TARGET: T1, human ACVR2A (human, UniProt P27037 20-135, limits assumed); note: test concentration or dose not given here
- T1 construct: also called activin receptor, type II A
- T1 sequence (P27037 20-135 limits assumed): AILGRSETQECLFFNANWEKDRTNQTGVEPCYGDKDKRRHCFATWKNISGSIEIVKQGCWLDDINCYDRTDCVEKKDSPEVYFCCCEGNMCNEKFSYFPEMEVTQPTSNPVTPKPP
- EXPERIMENT DESCRIPTION: ELISA
Would you mind labelling by optical density? At or over 3 OD is satisfied, under is not satisfied.

>>> class_label("365_D04 (antibody, V domains shown, Group I) VH: EVQLLESGGGLVQPGGSLRLSCAASGFTFSDYGMHWVRQAPGKGLEWVAGINYNGGYKSYADSVKGRFTISRDNSKNTLYLQMNSLRAEDTAVYYCARAANWHDTALDYWGQGTLVTVSS VL: DIQMTQSPSSLSASVGDRVTITCRASQSISSYLNWYQQKPGKAPKLVIYAVTSRASGVPSRFSGSGSGTDFTLTISSLQPEDFATYYCQQSYDLPLTFGGGTKVEIK")
"not satisfied"
>>> class_label("375_H04 (antibody, V domains shown, Group II) VH: EVQLLESGGGLVQPGGSLRLSCAASGFTFSSYGMHWVRQAPGKGLEWVAGINYNSGYTGYADSVKGRFTISRDNSKNTLYLQMNSLRAEDTAVYYCARAATWHDTHLDYWGQGTLVTVSS VL: DIQMTQSPSSLSASVGDRVTITCRASQSILSYLNWYQQKPGKAPKLVIYAATSRASGVPSRFSGSGSGTDFTLTISSLQPEDFATYYCQQSYSNPLTFGGGTKVEIK")
"satisfied"
>>> class_label("369_B03 (antibody, V domains shown, Group I) VH: EVQLLESGGGLVQPGGSLRLSCAASGFTFSSYGMHWVRQAPGKGLEWVAGINYNGGYTSYADSVKGRFTISRDNSKNTLYLQMNSLRAEDTAVYYCARAANWHDTALDYWGQGTLVTVSS VL: DIQMTQSPSSLSASVGDRVTITCRASQSILTYVNWYQQKPGKAPKLVIYAATSLASGVPSRFSGSGSGTDFTLTISSLQPEDFATYYCQQSYELPLTFGGGTKVEIK")
"satisfied"
>>> class_label("368_B12 (antibody, V domains shown, Group II) VH: EVQLLESGGGLVQPGGSLRLSCAASGFTFDSYGMHWVRQAPGKGLEWVSGINYNSGYTSYADSVKGRFTISRDNSKNTLYLQMNSLRAEDTAVYYCARAATWHDTHLDYWGQGTLVTVSS VL: DIQMTQSPSSLSASVGDRVTITCRASQSIVSYVNWYQQKPGKAPKLLIYAATSRASGVPSRFSGSGSGTDFTLTISSLQPEDFATYYCQQSYDLPLTFGGGTKVEIK")
"not satisfied"
